# Tested on: Epimastigote forms of T. cruzi (Y strain)
# assayComment: Trypanocidal effect on epimastigote forms (counting in Neubauer hemocytometer, Combination Index method)
# Type: cell-based
# testSettings: Trypanosoma cruzi, combined with 1.90 μM VK3, read-out: VC concentration in the combination with synergistic effect on 50% of the parasites (IC50 VC combined)

{"columns": ["molecule", "IC50, µM"],
 "data": [
  ["O=C1O[C@H]([C@@H](O)CO)C(O)=C1O [VC, L-ascorbic acid]", 610]
]}

###

# System: Epimastigote forms of T. cruzi (Y strain)
# assayComment: Trypanocidal effect on epimastigote forms (counting in Neubauer hemocytometer, Combination Index method)
# Type: cell-based
# testSettings: Trypanosoma cruzi, .61 mM VC, read-out: VK3 concentration in the combination with synergistic effect on 50% of the parasites (IC50 VK3 combined)

{"columns": ["structureNotation", "IC50"],
 "data": [
  ["CC1=CC(=O)c2ccccc2C1=O", "1900 nM"]
]}

###

# Test system: Trypomastigote forms of T. cruzi (Y strain)
# assayComment: Trypanocidal effect on trypomastigote forms (viability by mobility, Pizzi-Brener method, Combination Index method)
# Type: cell-based
# testSettings: Trypanosoma cruzi, combined with 0.20 mM VC, read-out: VK3 concentration in the combination with synergistic effect on 50% of the parasites (EC50 VK3 combined)
pEC50: −log10 of the molar value.
endpointLabel: pEC50

{"columns": ["molecule", "studyTarget", "endpointLabel", "assayResult"],
 "data": [
  ["CC1=CC(=O)c2ccccc2C1=O [VK3, 2-methyl-1,4-naphthalenedione]", "Trypomastigote forms of T. cruzi (Y strain)", "pEC50", 6.46]
]}
